# ASSAY_PROCEDURE: Dissociation constant, pKa of compound
# Format: physicochemical
PROPERTY: pKa

STRUCTURE	VAL
Cl.NC1=N[C@@]2(c3cccs3)CN(c3ncc(F)cn3)C[C@H]2CS1	7.5
Cl.N#Cc1ccc([C@]23CN(c4ncc(F)cn4)C[C@H]2CSC(N)=N3)s1	6.6
Cl.NC1=N[C@@]2(c3cnccn3)CN(c3ncc(F)cn3)C[C@H]2CS1	7.1
NC1=N[C@@]2(c3cc(NC(=O)c4ncc(F)cc4F)ccc3F)CN(c3ncc(F)cn3)C[C@H]2CS1	7.7

---

# ASSAY_PROCEDURE: Stability in dog liver microsomes at 2 uM measured upto 30 mins in presence of NADPH by LC-MS/MS analysis
# Format: ADME, Canis lupus familiaris, Microsome
# EXPERIMENTAL_CONTEXT: read-out: Stability
PROPERTY: remaining at 0.5 h, 2 µM (%)

MOLECULE	remaining at 0.5 h, 2 µM, %
NC1=N[C@@]2(c3cc(NC(=O)c4ccc(F)cn4)ccc3F)COC[C@H]2CS1	0
C[C@@H]1C[C@H]1COC(C)(C)[C@@H]1C[C@H]1[C@]12CN(c3ncccn3)C[C@H]1CSC(N)=N2	79

a. NC1=N[C@@]2(c3cc(NC(=O)c4ncc(F)cc4F)ccc3F)CN(c3ncc(F)cn3)C[C@H]2CS1
b. C[C@@H]1C[C@H]1CNC(=O)[C@@H]1C[C@H]1[C@]12CN(c3ncccn3)C[C@H]1CSC(N)=N2
c. COc1cnc(C(=O)Nc2ccc(F)c([C@]34CN(c5ncc(F)cn5)C[C@H]3CSC(N)=N4)c2)cn1
Task item: Parameters: sort_field (remaining at 0.5 h, 2 µM), sort_dir (desc). A ranking is expressed here by listing the labels in the requested order.
Reply: c, b, a

---

# ASSAY_PROCEDURE: Stability in human liver microsomes at 2 uM measured upto 30 mins in presence of NADPH by LC-MS/MS analysis
# Format: ADME, Microsome
# EXPERIMENTAL_CONTEXT: read-out: Stability
PROPERTY: remaining at 0.5 h, 2 µM (%)

The following compounds have reported results that may help.
COMPOUND	remaining at 0.5 h, 2 µM / %
C[C@@H]1C[C@H]1CNC(=O)[C@@H]1C[C@H]1[C@]12CN(c3ncccn3)C[C@H]1CSC(N)=N2	13
NC1=N[C@@]2(c3cc(NC(=O)c4ncc(F)cc4F)ccc3F)CN(c3ncc(F)cn3)C[C@H]2CS1	13

a. NC1=N[C@@]2(c3cc(NC(=O)c4ccc(F)cn4)ccc3F)COC[C@H]2CS1 [LY-2886721]
b. C[C@@H]1C[C@H]1CNC(=O)[C@@H]1C[C@H]1[C@]12COC[C@H]1CSC(N)=N2
Task item: Could you kindly indicate whether a or b has the higher remaining at 0.5 h, 2 µM value? Respond using the label that marks the chosen record.
Reply: b

---

# ASSAY_PROCEDURE: Clearance in rat at 2 mg/kg, iv by LC-MS/MS analysis
# Type: ADME, organism-based
# EXPERIMENTAL_CONTEXT: in vivo
PROPERTY: clearance (mL/min/kg)

Recorded results for 3 compounds are shown here.
COMPOUND	READOUT_UNITS	clearance
COc1cnc(C(=O)Nc2ccc(F)c([C@]34CN(c5ncc(F)cn5)C[C@H]3CSC(N)=N4)c2)cn1	mL/min/kg	20
NC1=N[C@@]2(c3cc(NC(=O)c4ccc(F)cn4)ccc3F)CN(c3ncc(F)cn3)C[C@H]2CS1 (relative stereo)	mL/min/kg	7.8
Cl.NC1=N[C@@]2(c3ccns3)CN(c3ncc(F)cn3)C[C@H]2CS1	mL/min/kg	53.2

A. NC1=N[C@@]2(c3cc(NC(=O)c4ncc(F)cc4F)ccc3F)CN(c3ncc(F)cn3)C[C@H]2CS1
B. NC1=N[C@@]2(c3cc(NC(=O)c4ccc(F)cn4)ccc3F)COC[C@H]2CS1 [LY-2886721]
Task item: Hi, I'm comparing A with B and wondering which one has the bigger number for clearance. Any idea? Lab log: write the label of the selected item as the result.
Reply: B
